- Tested on: TE-5 (Esophageal Squamous Cell Carcinoma)
- PROTOCOL_TEXT: Bliss excess, mean over the matrix (fraction); higher = more synergy
Give measured Bliss excess for each item. Keep answers brief.

Determine from records and report Bliss excess for CC(=O)c1c(C)c2cnc(Nc3ccc(N4CCNCC4)cn3)nc2n(C2CCCC2)c1=O [Palbociclib] + CC1(C)CCC(CN2CCN(c3ccc(C(=O)NS(=O)(=O)c4ccc(NCC5CCOCC5)c([N+](=O)[O-])c4)c(Oc4cnc5[nH]ccc5c4)c3)CC2)=C(c2ccc(Cl)cc2)C1 [Venetoclax] (first compound max 10 µM, 7x7, partner max 1 µM)
-0.0558

Determine from records and report Bliss excess for Cc1cc2ncnn2cc1Nc1ncc2c(n1)n(C1CCOCC1)c(=O)n2C [AZD7648] + CCN(CCO)CCCOc1ccc2c(Nc3cc(CC(=O)Nc4cccc(F)c4)[nH]n3)ncnc2c1 [AZD2811] (first compound max 10 µM, 7x7, partner max 1 µM)
-0.0237

Determine from records and report Bliss excess for CN(CCO)CC[C@H](CSc1ccccc1)Nc1ccc(S(=O)(=O)NC(=O)c2ccc(N3CCC([C@@H](O)c4ccccc4-c4ccc(Cl)cc4)CC3)cc2)cc1S(=O)(=O)C(F)(F)F [AZD4320] + C[C@@H](Nc1cc(F)cc(F)c1)c1cc(C(=O)N(C)C)cc2c(=O)cc(N3CCOCC3)oc12 [AZD8186] (first compound max 1 µM, 7x7, partner max 3 µM)
-0.0144

* * *

- System: J82 (Bladder Carcinoma)
- PROTOCOL_TEXT: combination Emax (second highest fraction inhibited in the dose matrix, 72 h); higher = more inhibition; extreme values may be limits of the assay
Please use true whenever combination Emax is not below 0.2, and false whenever it is.

Does CC1(C)CCC(CN2CCN(c3ccc(C(=O)NS(=O)(=O)c4ccc(NCC5CCOCC5)c([N+](=O)[O-])c4)c(Oc4cnc5[nH]ccc5c4)c3)CC2)=C(c2ccc(Cl)cc2)C1 [Venetoclax] + C=CCn1c(=O)c2cnc(Nc3ccc(N4CCN(C)CC4)cc3)nc2n1-c1cccc(C(C)(C)O)n1 [AZD1775] (first compound max 1 µM, partner max 1 µM) have a reported combination Emax of at least 0.2?
false

Does Cc1cc2ncnn2cc1Nc1ncc2c(n1)n(C1CCOCC1)c(=O)n2C [AZD7648] + O=C(c1cc(Cc2n[nH]c(=O)c3ccccc23)ccc1F)N1CCN(C(=O)C2CC2)CC1 [Olaparib] (first compound max 10 µM, 7x7, partner max 10 µM) have a reported combination Emax of at least 0.2?
true

Does C=CCn1c(=O)c2cnc(Nc3ccc(N4CCN(C)CC4)cc3)nc2n1-c1cccc(C(C)(C)O)n1 [AZD1775] + C[C@@H]1COCCN1C2=NC(=NC(=C2)C3(CC3)[S@](=N)(=O)C)C4=C5C=CNC5=NC=C4 [AZD6738] (first compound max 1 µM, partner max 10 µM) have a reported combination Emax of at least 0.2?
true

Does CN(C)CCCOc1ccc(-c2ccc3ncc4c(c3c2)n(C2CCOCC2)c(=O)n4C)cn1 [AZD0156] + O=C(c1cc(Cc2n[nH]c(=O)c3ccccc23)ccc1F)N1CCN(C(=O)C2CC2)CC1 [Olaparib] (first compound max 3 µM, partner max 3 µM) have a reported combination Emax of at least 0.2?
false

Does CC(=O)c1c(C)c2cnc(Nc3ccc(N4CCNCC4)cn3)nc2n(C2CCCC2)c1=O [Palbociclib] + Cc1c2c(nn1C)CSCc1cc(n(C)n1)CSc1cc(c3ccccc3c1)OCCCc1c(C(=O)O)n(C)c3c-2c(Cl)ccc13 [AZD5991] (first compound max 10 µM, 7x7, partner max 1 µM) have a reported combination Emax of at least 0.2?
true

Does COc1nnc2ccc(N3CCC(c4ccc(OCCN5CCN(C)C(=O)[C@H]5C)cc4)CC3)nn12 [AZD5153] + CC1(C)CCC(CN2CCN(c3ccc(C(=O)NS(=O)(=O)c4ccc(NCC5CCOCC5)c([N+](=O)[O-])c4)c(Oc4cnc5[nH]ccc5c4)c3)CC2)=C(c2ccc(Cl)cc2)C1 [Venetoclax] (first compound max 1 µM, 7x7, partner max 1 µM) have a reported combination Emax of at least 0.2?
true

Does Cc1c2c(nn1C)CSCc1cc(n(C)n1)CSc1cc(c3ccccc3c1)OCCCc1c(C(=O)O)n(C)c3c-2c(Cl)ccc13 [AZD5991] + CCN(CCO)CCCOc1ccc2c(Nc3cc(CC(=O)Nc4cccc(F)c4)[nH]n3)ncnc2c1 [AZD2811] (first compound max 1 µM, 7x7, partner max 1 µM) have a reported combination Emax of at least 0.2?
false

Does CCN(CCO)CCCOc1ccc2c(Nc3cc(CC(=O)Nc4cccc(F)c4)[nH]n3)ncnc2c1 [AZD2811] + C[C@@H]1COCCN1C2=NC(=NC(=C2)C3(CC3)[S@](=N)(=O)C)C4=C5C=CNC5=NC=C4 [AZD6738] (first compound max 1 µM, 7x7, partner max 10 µM) have a reported combination Emax of at least 0.2?
false

Does CN(C)CCCOc1ccc(-c2ccc3ncc4c(c3c2)n(C2CCOCC2)c(=O)n4C)cn1 [AZD0156] + C[C@@H]1COCCN1C2=NC(=NC(=C2)C3(CC3)[S@](=N)(=O)C)C4=C5C=CNC5=NC=C4 [AZD6738] (first compound max 1 µM, 7x7, partner max 10 µM) have a reported combination Emax of at least 0.2?
true

Does COc1cccc2c1C(=O)c1c(O)c3c(c(O)c1C2=O)C[C@@](O)(C(=O)CO)C[C@@H]3O[C@H]1C[C@H](N)[C@H](O)[C@H](C)O1 [Doxorubicin] + Cc1cc2ncnn2cc1Nc1ncc2c(n1)n(C1CCOCC1)c(=O)n2C [AZD7648] (first compound max 1 µM, 7x7, partner max 10 µM) have a reported combination Emax of at least 0.2?
true

Does CC1(C)CCC(CN2CCN(c3ccc(C(=O)NS(=O)(=O)c4ccc(NCC5CCOCC5)c([N+](=O)[O-])c4)c(Oc4cnc5[nH]ccc5c4)c3)CC2)=C(c2ccc(Cl)cc2)C1 [Venetoclax] + CN(C)CCCOc1ccc(-c2ccc3ncc4c(c3c2)n(C2CCOCC2)c(=O)n4C)cn1 [AZD0156] (first compound max 1 µM, 7x7, partner max 1 µM) have a reported combination Emax of at least 0.2?
false

Does CC(=O)c1c(C)c2cnc(Nc3ccc(N4CCNCC4)cn3)nc2n(C2CCCC2)c1=O [Palbociclib] + CC1(C)CCC(CN2CCN(c3ccc(C(=O)NS(=O)(=O)c4ccc(NCC5CCOCC5)c([N+](=O)[O-])c4)c(Oc4cnc5[nH]ccc5c4)c3)CC2)=C(c2ccc(Cl)cc2)C1 [Venetoclax] (first compound max 10 µM, 7x7, partner max 1 µM) have a reported combination Emax of at least 0.2?
true

* * *

- System: KM-H2 (Hodgkin's Lymphoma)
- PROTOCOL_TEXT: combination Emax (second highest fraction inhibited in the dose matrix, 72 h); higher = more inhibition; extreme values may be limits of the assay
PROPERTY_NAME: combination Emax
Lab note: record just the number, no unit beside it.

Determine from records and report combination Emax for Cn1cnc2c(F)c(Nc3ccc(Br)cc3Cl)c(C(=O)NOCCO)cc21 [Selumetinib] + C[C@@H]1COCCN1C2=NC(=NC(=C2)C3(CC3)[S@](=N)(=O)C)C4=C5C=CNC5=NC=C4 [AZD6738] (first compound max 10 µM, 7x7, partner max 10 µM)
0.751

Determine from records and report combination Emax for CC1(C)CCC(CN2CCN(c3ccc(C(=O)NS(=O)(=O)c4ccc(NCC5CCOCC5)c([N+](=O)[O-])c4)c(Oc4cnc5[nH]ccc5c4)c3)CC2)=C(c2ccc(Cl)cc2)C1 [Venetoclax] + Cc1cc2ncnn2cc1Nc1ncc2c(n1)n(C1CCOCC1)c(=O)n2C [AZD7648] (first compound max 1 µM, 7x7, partner max 10 µM)
0.161

* * *

- System: MDA-MB-157 (Breast Carcinoma)
- PROTOCOL_TEXT: Bliss excess, mean over the matrix (fraction); higher = more synergy
Give measured Bliss excess for each item. Keep answers brief.
Lab note: record just the number, no unit beside it.

Determine from records and report Bliss excess for C=CCn1c(=O)c2cnc(Nc3ccc(N4CCN(C)CC4)cc3)nc2n1-c1cccc(C(C)(C)O)n1 [AZD1775] + C[C@@H]1COCCN1C2=NC(=NC(=C2)C3(CC3)[S@](=N)(=O)C)C4=C5C=CNC5=NC=C4 [AZD6738] (first compound max 1 µM, partner max 10 µM)
0.0217

Determine from records and report Bliss excess for NC1(C(=O)N[C@@H](CCO)c2ccc(Cl)cc2)CCN(c2ncnc3[nH]ccc23)CC1 [Capivasertib] + CCN(CCO)CCCOc1ccc2c(Nc3cc(CC(=O)Nc4cccc(F)c4)[nH]n3)ncnc2c1 [AZD2811] (first compound max 10 µM, 7x7, partner max 1 µM)
0.0354

Determine from records and report Bliss excess for COc1nnc2ccc(N3CCC(c4ccc(OCCN5CCN(C)C(=O)[C@H]5C)cc4)CC3)nn12 [AZD5153] + CC1(C)CCC(CN2CCN(c3ccc(C(=O)NS(=O)(=O)c4ccc(NCC5CCOCC5)c([N+](=O)[O-])c4)c(Oc4cnc5[nH]ccc5c4)c3)CC2)=C(c2ccc(Cl)cc2)C1 [Venetoclax] (first compound max 1 µM, 7x7, partner max 1 µM)
-0.0454

Determine from records and report Bliss excess for C[C@@H](Nc1cc(F)cc(F)c1)c1cc(C(=O)N(C)C)cc2c(=O)cc(N3CCOCC3)oc12 [AZD8186] + CC(=O)c1c(C)c2cnc(Nc3ccc(N4CCNCC4)cn3)nc2n(C2CCCC2)c1=O [Palbociclib] (first compound max 10 µM, 7x7, partner max 10 µM)
0.0093

Determine from records and report Bliss excess for NC1(C(=O)N[C@@H](CCO)c2ccc(Cl)cc2)CCN(c2ncnc3[nH]ccc23)CC1 [Capivasertib] + Cn1cnc2c(F)c(Nc3ccc(Br)cc3Cl)c(C(=O)NOCCO)cc21 [Selumetinib] (first compound max 10 µM, 7x7, partner max 10 µM)
-0.014

Determine from records and report Bliss excess for C=CCn1c(=O)c2cnc(Nc3ccc(N4CCN(C)CC4)cc3)nc2n1-c1cccc(C(C)(C)O)n1 [AZD1775] + O=C(c1cc(Cc2n[nH]c(=O)c3ccccc23)ccc1F)N1CCN(C(=O)C2CC2)CC1 [Olaparib] (first compound max 1 µM, partner max 10 µM)
-0.0379

Determine from records and report Bliss excess for C[C@@H](c1ccc2nccn2c1)n1nnc2ncc(-c3cnn(C)c3)nc21 [Savolitinib] + Cc1c2c(nn1C)CSCc1cc(n(C)n1)CSc1cc(c3ccccc3c1)OCCCc1c(C(=O)O)n(C)c3c-2c(Cl)ccc13 [AZD5991] (first compound max 1 µM, 7x7, partner max 1 µM)
-0.0501

Determine from records and report Bliss excess for CC1(C)CCC(CN2CCN(c3ccc(C(=O)NS(=O)(=O)c4ccc(NCC5CCOCC5)c([N+](=O)[O-])c4)c(Oc4cnc5[nH]ccc5c4)c3)CC2)=C(c2ccc(Cl)cc2)C1 [Venetoclax] + C1CN(CCC1(C(=O)N[C@@H](CCO)C2=CC=C(C=C2)Cl)N)C3=NC=NC4=C3C=CN4 [Capivasertib] (first compound max 1 µM, 7x7, partner max 3 µM)
-0.0187

Determine from records and report Bliss excess for CCc1c2c(nc3ccc(O)cc13)-c1cc3c(c(=O)n1C2)COC(=O)[C@]3(O)CC [SN-38] + O=C(c1cc(Cc2n[nH]c(=O)c3ccccc23)ccc1F)N1CCN(C(=O)C2CC2)CC1 [Olaparib] (first compound max 0.3 µM, 7x7, partner max 10 µM)
0.0102

meta.source: the supplement of paper PMC11061612
